Test system: SH-SY5Y
protocol_details: Neuroprotective activity against human SH-SY5Y cells assessed as reduction in protein ubiquitination level incubated for 24 hrs in presence of MG132 by Western blot analysis
Format: functional, cell-based
The source made the active and inactive calls. The calls are words filed in the database; no cut-off is given here.
attribute_measured: Activity

As a guide, the following entries are already answered.
{"columns": ["smiles_structure", "system_under_test", "Activity"],
 "data": [
  ["CC(=O)Oc1ccc(Cl)cc1C(=O)Nc1ccc([N+](=O)[O-])cc1Cl", "SH-SY5Y", "Active"],
  ["O=C(Nc1ccc(C(F)(F)F)cc1Cl)c1cc(Cl)ccc1O", "SH-SY5Y", "Active"],
  ["O=C(Nc1ccc([N+](=O)[O-])cc1)c1cc(Cl)ccc1O", "SH-SY5Y", "Active"],
  ["[N-]=[N+]=Nc1ccc(NC(=O)c2cc(Cl)ccc2O)c(Cl)c1", "SH-SY5Y", "Active"]
]}

Please state Activity for every compound in the list that follows.
1. O=C(Nc1ccc([N+](=O)[O-])cc1Cl)c1ccccc1
2. O=C(Nc1ccc([N+](=O)[O-])cc1Cl)c1cc(Cl)ccc1O

output:
1: inactive; 2: Active

input: Would you mind telling me what Activity value was observed for CC(=O)Nc1ccc(NC(=O)c2cc(Cl)ccc2OC(C)=O)c(Cl)c1 ?
output: inactive

----------
Test system: SH-SY5Y
protocol_details: Neuroprotective activity against human SH-SY5Y cells assessed as reduction in cleaved PARP level incubated for 24 hrs in presence of MG132 by Western blot analysis
Type: functional, cell-based
Activity calls are given as the source filed them. The rule behind the calls is not given here.
Valid outcomes are listed here; reply with one: label 1 (active), label 0 (inactive)

input: // return assay outcome for CC(=O)Nc1ccc(NC(=O)c2cc(Cl)ccc2OC(C)=O)c(Cl)c1
output: label 0

input: Check O=C(Nc1ccc([N+](=O)[O-])cc1)c1cc(Cl)ccc1O too.
output: label 1

input: Check O=C(Nc1ccc(C(F)(F)F)cc1Cl)c1cc(Cl)ccc1O too.
output: label 1

input: Check O=C(Nc1ccc([N+](=O)[O-])cc1Cl)c1cc(Cl)ccc1O too.
output: label 1

input: Check [N-]=[N+]=Nc1ccc(NC(=O)c2cc(Cl)ccc2O)c(Cl)c1 too.
output: label 1

----------
Test system: SH-SY5Y
protocol_details: Neuroprotective activity against human SH-SY5Y cells assessed as inhibition of CHOP expression incubated for 24 hrs in presence of MG132 by Western blot analysis
Format: functional, cell-based
Active and inactive are the calls of the source. The calls are words filed in the database; no cut-off is given here.
Valid outcomes are listed here; reply with one: YES (active), NO (inactive)

{"columns": ["smiles_structure", "group"],
 "data": [
  ["O=C(Nc1ccc([N+](=O)[O-])cc1Cl)c1ccccc1O", "YES"],
  ["O=C(Nc1ccc(C(F)(F)F)cc1Cl)c1cc(Cl)ccc1O", "YES"],
  ["O=C(Nc1ccc([N+](=O)[O-])cc1)c1cc(Cl)ccc1O", "YES"],
  ["CC(=O)Oc1ccc(Cl)cc1C(=O)Nc1ccc([N+](=O)[O-])cc1Cl", "YES"],
  ["[N-]=[N+]=Nc1ccc(NC(=O)c2cc(Cl)ccc2O)c(Cl)c1", "YES"]
]}

input: // return assay outcome for O=C(Nc1ccc([N+](=O)[O-])cc1Cl)c1cc(Cl)ccc1O
output: YES

input: Check CC(=O)Nc1ccc(NC(=O)c2cc(Cl)ccc2OC(C)=O)c(Cl)c1 too.
output: NO
